Sourced from paper PMC11726654

Measured Papp by item
ASSAY_TEXT: Caco-2 permeability and efflux
CONDITIONS_USED: human, Caco-2
MEASUREMENT_TYPE: Papp (×10⁻⁶ cm/s)

[[record]]
molecule = "O=C(c1ccc(S(=O)(=O)Nc2ccccc2)cc1)N(Cc1ccc(NC2COC2)cn1)CC1CC1 [Compound 76]"
measurement_type = "Papp"
value_unit = "×10⁻⁶ cm/s"
observed_value = 1.7

[[record]]
molecule = "CN(c1ccccc1)S(=O)(=O)c1ccc(C(=O)N(Cc2ccc(NCCO)cn2)CC2CC2)cc1 [Compound 84]"
measurement_type = "Papp"
value_unit = "×10⁻⁶ cm/s"
observed_value = 5.7

[[record]]
molecule = "O=C(c1ccc(S(=O)(=O)Nc2ccccc2)cc1)N(Cc1ccc(CCc2nnn[nH]2)cn1)CC1CC1 [Compound 79]"
measurement_type = "Papp"
value_unit = "×10⁻⁶ cm/s"
observed_value = 0.1

[[record]]
molecule = "Cc1nc(CN(CC2CC2)C(=O)c2ccc(S(=O)(=O)Nc3ccccc3)cc2)ccc1NCCO [Compound 82]"
measurement_type = "Papp"
value_unit = "×10⁻⁶ cm/s"
observed_value = 0.6


* * *

ASSAY_TEXT: CNS penetration study
CONDITIONS_USED: male, Sprague-Dawley, rat, brain/plasma, iv, 1 mg/kg
MEASUREMENT_TYPE: Kp at 1 h

[[record]]
entry_smiles = "CCCCN(Cc1ccc2[nH]ccc2c1)C(=O)c1ccc(S(=O)(=O)Nc2ccccc2)cc1"
observed_value = 0.4


* * *

ASSAY_TEXT: Microsomal stability
CONDITIONS_USED: human, microsomes, pH 7.4
MEASUREMENT_TYPE: microsomal CLint at 0.5 h, 2 µM (µL/min/mg)

[[record]]
compound = "O=C(c1ccc(S(=O)(=O)Nc2ccccc2)cc1)N(Cc1ccc(NC2COC2)cn1)CC1CC1 [Compound 76]"
observed_value = 71

[[record]]
compound = "O=C(c1ccc(S(=O)(=O)Nc2ccccc2)cc1)N(Cc1ccc(OCCO)cc1)CC1CC1 [Compound 86]"
observed_value = 119

[[record]]
compound = "Nc1ccc(CN(CC2CC2)C(=O)c2ccc(S(=O)(=O)Nc3ccccc3)cc2)nc1 [Compound 72]"
observed_value = 36

[[record]]
compound = "O=C(c1ccc(S(=O)(=O)Nc2ccccc2)cc1)N(Cc1ccccc1)CC1CC1 [Compound 57]"
observed_value = 495

[[record]]
compound = "Cc1cc(CN(CC2CC2)C(=O)c2ccc(S(=O)(=O)Nc3ccccc3)cc2)ncc1NCCO [Compound 83]"
observed_value = 130

[[record]]
compound = "O=C(c1ccc(S(=O)(=O)Nc2ccccc2)cc1)N(Cc1ccc(F)cn1)CC1CC1 [Compound 71]"
observed_value = 282

[[record]]
compound = "O=C(c1ccc(S(=O)(=O)Nc2ccccc2)cc1)N(Cc1ccc(NCCO)cn1)CC1CC1 [Compound 74]"
observed_value = 42

[[record]]
compound = "COCCNc1ccc(CN(CC2CC2)C(=O)c2ccc(S(=O)(=O)Nc3ccccc3)cc2)nc1 [Compound 75]"
observed_value = 175


* * *

ASSAY_TEXT: In vivo PK, i.v. dosing
CONDITIONS_USED: male, Sprague-Dawley, rat, plasma, intravenous
MEASUREMENT_TYPE: CLint scaled (L/h/kg)

[[record]]
molecule = "CCCCN(Cc1ccc2[nH]ccc2c1)C(=O)c1ccc(S(=O)(=O)Nc2ccccc2)cc1 [Compound 51]"
measurement_type = "CLint scaled"
value_unit = "L/h/kg"
observed_value = 4.07

[[record]]
molecule = "N#CCCN(Cc1ccncc1)C(=O)c1ccc(S(=O)(=O)Nc2ccccc2)cc1 [Compound 55]"
measurement_type = "CLint scaled"
value_unit = "L/h/kg"
observed_value = 0.99

[[record]]
molecule = "O=C(c1ccc(S(=O)(=O)Nc2ccccc2)cc1)N(Cc1ccc(NCCO)cn1)CC1CC1 [Compound 74]"
measurement_type = "CLint scaled"
value_unit = "L/h/kg"
observed_value = 3.11

[[record]]
molecule = "COCCNc1ccc(CN(CC2CC2)C(=O)c2ccc(S(=O)(=O)Nc3ccccc3)cc2)nc1 [Compound 75]"
measurement_type = "CLint scaled"
value_unit = "L/h/kg"
observed_value = 22.4

